Tested on: Cryptococcus neoformans
Conditions: Concentration 20 uM; ASSAY_TEST Inhibition of Fungal Growth; detection method Resazurin; Absorption (OD600-OD570); plate type 384well; NBS; CORNING #3640
Description: Antifungal activity against Cryptococcus neoformans H99 ATCC 208821 (CO-ADD:FG_002); MIC in YNB media using NBS plates, by Resazurin OD(600-570)
Entries with a potency or affinity are not part of this list.
recorded_metric: Inhibition (%)
One number for each entry, in %.

compound: Nc1ccc2c(c1)Cc1cc(Cl)c(Cl)cc1-2
recorded_metric: Inhibition
reported_result: -5.33

compound: Sc1ncnc2c1cnn2-c1ccccc1
recorded_metric: Inhibition
reported_result: 30.67

compound: COc1ccc2c(n1)Sc1nc3ccccc3nc1N2
recorded_metric: Inhibition
reported_result: -8.75

Each compound below has a recorded value; state its Inhibition.
1. CCNc1nc(NC(C)C)nc(-c2ccncc2)n1
2. CCCCOc1nc2c(c(=O)n(C)c(=O)n2C)n1C
3. C=C(C)CN1C(=O)C(C)S/C1=N/N=C1/SCC(=O)N1C (configuration not stated)
4. O=C(CC1C=Cc2ccccc2N1C(=O)c1ccccc1)c1ccccc1 (configuration not stated)

1. -10.92
2. 10.8
3. -8.83
4. -5.82

Please give Inhibition for each item listed below.
1. CN(C(=O)c1ccncc1)c1ccccc1
2. CCCSc1ncnc2[nH]ncc12
3. CCCn1cnc2c(Sc3c([N+](=O)[O-])ncn3C)nc(N)nc21
4. O=[N+]([O-])c1ccccc1/C=C/C=N/N=C/c1ccccc1O
5. CCCCn1c(OC(=S)N(CC)CC)cc(C)nc1=S
6. COc1cc(/N=N/c2ccccc2C(=O)O)ccc1O

[6.4, -5.45, -2.37, 3.86, -2.34, 3.74]

Can you give me Inhibition for all of these, one by one?
1. CCc1noc2cc(-c3ccccc3)n(C)c(=O)c12
2. Cn1ncc2c(Sc3ccc(Cl)cc3)ncnc21
3. C=C1S/C(=N\c2c(C)cccc2Cl)N(C(=O)c2sc3ccccc3c2Cl)C12CCCCC2
4. CSc1nsc(NN)n1
5. CN(C)c1ccc(/C=C/c2ccc3ccccc3n2)cc1
6. CC(C)CNC(=O)/C=C\C(=O)O
7. Cn1c(=O)c2c(nc(Oc3ccccc3)n2C)n(C)c1=O

1. -7.67
2. -10.69
3. 0.57
4. -11.9
5. -14.32
6. 32.61
7. -3.63

Hi team, please reply with Inhibition for each item in this list.
1. CC(C)COC(=O)NC1c2ccccc2Oc2ccccc21
2. Cc1cc(NC(=O)c2ccccc2)c(Cl)cc1N

1: -2.37; 2: -3.43

The reported measurements were obtained from ChEMBL document CHEMBL4296182.
